Tested on: OVCAR-3 ovarian
assay.text: NCI-60 one-dose screen, 48 h
experimental.setup: 10 µM unless noted
About 83,000 compounds went through this panel and 20% of them were active in at least one assay; those are over-represented in the sample as a whole. Calls of active or inactive are those of the source. How the source made its calls: active means growth percent below 10; inactive means the rest.
# valid calls are active, inactive; nothing else

For CSc1nc(N)c(N=Nc2ccc(S(=O)(=O)Nc3nnc(C)s3)cc2)c(=O)[nH]1 , what call appears in the results of this test?
inactive

Try this compound too: Cn1cc(-c2noc(-c3cn(C)c4ncc(F)cc34)n2)c2cc(Br)ccc21
inactive

Query C=C(C)[C@@H]1CC[C@]2(C)[C@H](CC[C@@H]3[C@@H]([C@@](C)(O)CCC=C(C)C)CC[C@]32C)[C@@]1(C)CCC(=O)O next
active

Follow-up item: Clc1ccc2nc(-c3ccc(-c4ccc(/C=N/NC5=NCCN5)cc4)s3)cn2c1
inactive

Try the compound COc1ccc(/C=C/C=C\C(=O)c2ccc(-n3ccnc3)cc2)cc1
inactive

What about this compound? COc1cc2c(cc1OCCCN1CCN(CCCOc3cc4c(cc3OC)C(=O)N3C[C@H](F)C[C@H]3C=N4)CC1)N=C[C@@H]1C[C@@H](F)CN1C2=O
active

// same read-out, input: C[C@]12CCc3nc(Nc4ccccc4)sc3C1=CC[C@@H]1[C@@H]2CC[C@]2(C)/C(=N/NC(N)=S)CC[C@@H]12
active

Same read-out for C#CCNC(=O)CC[C@@H](C)[C@H]1CC[C@H]2[C@@H]3CC[C@@H]4CC(=O)CC[C@]4(C)[C@H]3CC[C@]12C ?
active

Also need O=C(C[n+]1ccn(CC(OCc2ccc(Cl)cc2Cl)c2ccc(Cl)cc2Cl)c1)c1ccc(F)cc1 (stereo not given) , thanks.
active

Continue with C#CC(OC(=O)N(C)C)(c1ccccc1)c1ccc(F)cc1 (stereo not given)
inactive

Input C=C(C)[C@@H]1CC[C@]2(C(N)=O)CC[C@]3(C)[C@H](CC[C@@H]4[C@@]5(C)C/C(=C/c6cccnc6)C(=O)C(C)(C)[C@@H]5CC[C@]43C)[C@@H]12
inactive

Now consider CCCCCCSc1ncnc2nc[nH]c12 .
inactive

And what about the compound Cc1cccc(C[C@H](NC(=O)Nc2ccc(C)cc2F)C(=O)N[C@@H]2C(=O)N3C[C@H](O)C[C@H]3C(=O)N3CCN(C)C[C@H]3C(=O)N[C@@H](C)C(=O)N3C[C@H](C)C[C@H]3C(=O)O[C@H]2C)c1 ?
inactive

Request: Cc1cnc([C@]23CC[C@@H](C)[C@H](C)[C@H]2C2=CC[C@@H]4[C@@]5(C)Cc6c([nH]c7ccccc67)C(C)(C)[C@@H]5CC[C@@]4(C)[C@]2(C)CC3)o1
inactive

// repeat for Cn1cc(-c2noc(-c3cn(C)c4ncc(F)cc34)n2)c2ccccc21 and report
inactive

Also, O=C(OCc1ccc2c(Cl)cc(Cl)c(O)c2n1)N1CCN(C(=O)c2cc3cc(F)ccc3[nH]2)CC1 please.
active

Further, for C1=C[C@H]2O[C@@H]1c1ccc3[nH]ccc3c12 ?
inactive

Similarly, O=C(Nc1cccnc1)c1ccc2ccc3ccc(C(=O)Nc4cccnc4)nc3c2n1 ?
inactive

// same read-out, input: C=C(CN=[N+]=[N-])[C@@H]1CC[C@]2(C)[C@H](CC[C@@H]3[C@H]4[C@H]5OC(=O)[C@@]4(CCC5(C)C)CC[C@]32C)[C@@]1(C)CCC#N
inactive

Can you handle C#CCNC(=O)CC[C@]1(C)[C@H]2CC[C@@H]3[C@@H]([C@@](C)(O)CCC=C(C)C)CC[C@@]3(C)[C@]2(C)CC[C@H]1C(=C)C next?
active

Same read-out for O=C1C(Cl)=C(Nc2ccc3cn[nH]c3c2)C(=O)c2ccccc21 ?
active

Thanks! And CC(C)C1=NOC(=O)C1=Cc1cn(-c2ccccc2)nc1-c1ccc(Cl)cc1 ?
inactive

Proceed to CCOc1cccc2c(NC(C)CCCN(CC)CC)c(C)cnc12 (stereo not given)
inactive

Lookup COc1ccc(-c2cc(-c3ccc(Cl)cc3)nc(SCCCCCCC(=O)NO)n2)cc1
inactive

Further, for CCN(CC)c1ccc2cc(C(Nc3ccc(C)cc3)c3nnnn3C(C)(C)C)c(=O)oc2c1 (stereo not given) ?
inactive

Same for Cc1cc(C)c(O)c(CNCCCCCCNCc2cc(C)cc(C)c2O)c1
inactive

Queued: c1coc2occoc=2o1
inactive

Param item: COc1ccc(C(=O)CSc2nnc(-c3cc(-c4ccccc4)nc4ccccc34)o2)cc1
inactive

Quick one: CC1(C)OC2[C@@H](CNC(=O)NC(=O)NC(=O)CI)O[C@@H](n3cnc4c(NC(=O)Nc5ccccc5)ncnc43)[C@H]2O1 (stereo not given in full)
active

Similarly, CCOC(=O)COc1ccc2c(c1)O/C(=C\c1ccc(O)cc1)C2=O ?
inactive

What do you get for C[n+]1cccc(NC(=O)c2ccc3ccc4ccc(C(=O)Nc5ccc[n+](C)c5)nc4c3n2)c1 ?
inactive

Subsequent entry: ClC1=C(Cl)C(Cl)=C(Cl)C1=Cc1ccccc1
active

Record: CC1Cc2c(Cl)ncnc2N(C)c2ccccc21 (stereo not given)
inactive

Also, O=C(Nc1ccc(Nc2ccncc2)cc1)c1ccc([N+](=O)[O-])cc1 please.
inactive

// same read-out, input: C[n+]1c(-c2ccccc2)c2cc(N)ccc2c2ccccc21
inactive

###

Tested on: SK-MEL-2 melanoma
assay.text: NCI-60 one-dose screen, 48 h
experimental.setup: 10 µM unless noted
Compounds without any hit were thinned out: in the full panel of roughly 83,000, 20% have a hit. The source made the active and inactive calls. Rule for the calls: active = growth percent below 10; inactive = the rest.
Entry note: the call must match one of t for active, f for inactive

Please share the test call associated with CCN(CCO)CCC(=O)c1ccc([N+](=O)[O-])cc1 .
f

How about O=C(Oc1ccc(Cl)cc1[N+](=O)[O-])Oc1ccc(Cl)cc1[N+](=O)[O-] ?
f

Likewise for CCOC(=O)c1nn(C2CCCCO2)c2ccc(NC(=O)Cn3nnc4ccccc43)cc12 (stereo not drawn) ?
f

Moving on to [2H]C1([2H])CCN(C(=O)C2CC2)c2cc(NS(=O)(=O)c3ccc(-c4cccc(C(N)=O)c4)cc3)ccc21
t

Would you mind doing CC1(C)CC[C@]2(C(N)=O)CC[C@]3(C)C(=CC[C@@H]4[C@@]5(C)C/C(=C/c6cccnc6)C(=O)C(C)(C)[C@@H]5CC[C@]43C)[C@@H]2C1 as well?
t

Ok, now COc1cc2c(c(OC)c1OC)-c1cc(I)c(O)cc1[C@@H](NC(C)=O)CC2
f

Same for Cc1cnc(N)nc1OCCNC(=O)c1cccc(-c2ccc(S(=O)(=O)Nc3ccc4c(c3)N(C(=O)C3CC3)CCC4)cc2)c1
f

Queued: Cc1ncc(C(=O)Nc2ccc(CN3CCN(C)CC3)c(C(F)(F)F)c2)cc1C#Cc1c(N)ncc2ccc(C#N)cc12
f

###

System: SK-OV-3 ovarian
assay.text: NCI-60 one-dose screen, 48 h (100 = growth as untreated, 0 = no growth, -100 = all killed)
experimental.setup: 10 µM unless noted
This is part of a sample that, as a whole, favours compounds with a hit. Of some 83,000 tested, about 20% had one in any assay. Activity calls are given as the source filed them. The calls were made as follows: active = growth percent below 10; inactive = the rest.
recorded.metric: growth

# input molecule: CCOC(CNC(=O)c1cccc([N+](=O)[O-])c1)OCC ; wanted: its growth
108% (inactive)

Repeat with NC(=O)c1c(NC(=O)COC(=O)Cc2ccccc2F)sc2c1CCC2
104% (inactive)

Do the same for Cc1cccc(/C=C2\N=C(c3ccccc3)N(c3ccc(S(N)(=O)=O)cc3)C2=O)c1 please
98.8% (inactive)

Please do the same for Cn1cc(-c2noc(-c3cn(C)c4ncc(Br)cc34)n2)c2cc(Cl)ccc21 as well.
62.8% (inactive)

Now give it for C=CCCCCOc1ccccc1-c1cnc(OCCCCC=C)n1C too.
75% (inactive)

Same question, C=C(C)[C@@H]1CC[C@]2(C(N)=O)CC[C@]3(C)[C@H](CC[C@@H]4[C@@]5(C)C/C(=C/c6cccnc6)C(=O)C(C)(C)[C@@H]5CC[C@]43C)[C@@H]12 this time
12.9% [100 µM] (inactive)

And Cc1ccc(N)c(O)c1 ?
112% (inactive)

Same again, this time with C=C(CC(=O)OC)C(C)=O
103% (inactive)

Next record, please: C#CCC(C(=O)OCC)C(=O)OCC
99.5% (inactive)

And what about the molecule COc1ncc(-c2ccc3nc(N)n(-c4ccccc4C(F)(F)F)c(=O)c3c2)cc1S(=O)(=O)Nc1ccc(F)cc1F ?
72.1% (inactive)

###

Test system: OVCAR-5 ovarian
assay.text: NCI-60 one-dose screen, 48 h (100 = growth as untreated, 0 = no growth, -100 = all killed)
experimental.setup: 10 µM unless noted
This is part of a sample that, as a whole, favours compounds with a hit. Of some 83,000 tested, about 20% had one in any assay. Calls of active or inactive are those of the source. Rule for the calls: active = growth percent below 10; inactive = the rest.
recorded.metric: growth

What does the record list as growth for Cc1cc2c(C(C)C)c(O)c(O)c(C=NCc3ccoc3)c2c(O)c1-c1c(C)cc2c(C(C)C)c(O)c(O)c(C=NCc3ccco3)c2c1O ?
68.9% (inactive)

Also need COc1ccc(/C=C/C=C\C(=O)c2ccc(-n3ccnc3)cc2)cc1 , thanks.
103% (inactive)

Next molecule up: Cc1cccc(C[C@H](NC(=O)Nc2ccc(C)cc2F)C(=O)N[C@@H]2C(=O)N3C[C@H](O)C[C@H]3C(=O)N3CCN(C)C[C@H]3C(=O)N[C@@H](C)C(=O)N3C[C@H](C)C[C@H]3C(=O)O[C@H]2C)c1
42.7% (inactive)
